- tgt: soluble guanylate cyclase (sGC) (Homo sapiens (Human), UniProt Q02108+Q02153)
- Sequence (Q02153 whole entry): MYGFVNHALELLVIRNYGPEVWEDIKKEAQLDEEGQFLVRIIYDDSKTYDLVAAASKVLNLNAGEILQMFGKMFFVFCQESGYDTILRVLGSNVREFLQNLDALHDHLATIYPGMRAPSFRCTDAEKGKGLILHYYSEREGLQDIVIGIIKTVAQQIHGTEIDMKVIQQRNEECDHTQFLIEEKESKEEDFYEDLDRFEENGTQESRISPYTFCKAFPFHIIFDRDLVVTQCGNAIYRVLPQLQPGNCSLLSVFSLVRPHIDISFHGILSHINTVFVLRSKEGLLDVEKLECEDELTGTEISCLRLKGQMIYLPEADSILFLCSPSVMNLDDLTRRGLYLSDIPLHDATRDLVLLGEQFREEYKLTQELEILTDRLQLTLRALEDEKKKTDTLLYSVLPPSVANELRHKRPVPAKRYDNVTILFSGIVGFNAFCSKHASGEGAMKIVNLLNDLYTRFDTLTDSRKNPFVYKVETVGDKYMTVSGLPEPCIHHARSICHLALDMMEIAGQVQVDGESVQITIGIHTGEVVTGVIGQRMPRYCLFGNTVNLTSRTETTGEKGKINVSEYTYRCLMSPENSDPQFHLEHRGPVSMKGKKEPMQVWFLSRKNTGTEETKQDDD
- Sequence (Q02108 whole entry): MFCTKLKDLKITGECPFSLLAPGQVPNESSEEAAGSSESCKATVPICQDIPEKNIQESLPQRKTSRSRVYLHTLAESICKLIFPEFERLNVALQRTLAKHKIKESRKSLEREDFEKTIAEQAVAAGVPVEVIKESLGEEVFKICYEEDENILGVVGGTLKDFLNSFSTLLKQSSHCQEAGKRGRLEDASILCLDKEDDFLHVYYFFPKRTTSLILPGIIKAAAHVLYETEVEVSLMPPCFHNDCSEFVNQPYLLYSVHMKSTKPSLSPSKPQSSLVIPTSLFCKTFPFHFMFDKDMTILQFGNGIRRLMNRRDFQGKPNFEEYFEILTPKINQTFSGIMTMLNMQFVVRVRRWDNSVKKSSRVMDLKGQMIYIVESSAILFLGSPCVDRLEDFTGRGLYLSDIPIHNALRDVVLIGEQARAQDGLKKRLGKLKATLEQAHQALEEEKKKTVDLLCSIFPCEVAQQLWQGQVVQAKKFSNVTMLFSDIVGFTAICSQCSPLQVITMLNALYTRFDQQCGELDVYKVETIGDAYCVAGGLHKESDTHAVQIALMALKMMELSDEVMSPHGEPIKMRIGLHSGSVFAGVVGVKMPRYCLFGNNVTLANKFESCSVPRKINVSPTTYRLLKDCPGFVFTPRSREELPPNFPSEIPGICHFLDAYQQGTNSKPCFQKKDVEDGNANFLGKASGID
- experiment summary: sGC-HEK-cGMP assay run with SNP incubation (HEK WC assay)
- Assay type: cell-based
- test settings: read-out: HEK WC Assay (% Emax at 30 μM with 10 uM SNP)
parameter measured: Emax

Solved entries (count: 10):
compound=O=S(=O)(c1cnc(-c2cc(-c3ccon3)n(Cc3ccccc3F)n2)nc1O)N1CCOCC1 tgt="soluble guanylate cyclase (sGC) (Homo sapiens (Human), UniProt Q02108+Q02153)" parameter_measured=Emax result="40 to 60%"
compound=OCCc1cnc(-c2cc(-c3ccon3)n(Cc3ccccc3F)n2)nc1O tgt="soluble guanylate cyclase (sGC) (Homo sapiens (Human), UniProt Q02108+Q02153)" parameter_measured=Emax result="20 to 40%"
compound=CC(C)(C(=O)Nc1cnc(-c2cc(-c3ccon3)n(Cc3ccccc3F)n2)nc1N)n1cncn1 tgt="soluble guanylate cyclase (sGC) (Homo sapiens (Human), UniProt Q02108+Q02153)" parameter_measured=Emax result="60 to 80%"
compound=CC(C)(C)OC(=O)n1c(=O)[nH]c2nc(-c3cc(-c4ccon4)n(Cc4ccccc4F)n3)ncc21 tgt="soluble guanylate cyclase (sGC) (Homo sapiens (Human), UniProt Q02108+Q02153)" parameter_measured=Emax result="20 to 40%"
compound=Fc1cccc(F)c1Cn1nc(-c2ncccn2)cc1-c1ccon1 tgt="soluble guanylate cyclase (sGC) (Homo sapiens (Human), UniProt Q02108+Q02153)" parameter_measured=Emax result="40 to 60%"
compound=CC(C)(Oc1ccccc1)C(=O)Nc1cnc(-c2cc(-c3ccon3)n(Cc3ccccc3F)n2)nc1N tgt="soluble guanylate cyclase (sGC) (Homo sapiens (Human), UniProt Q02108+Q02153)" parameter_measured=Emax result="20 to 40%"
compound=Fc1ccccc1Cn1nc(-c2nc(Cl)cc(C(F)(F)F)n2)cc1-c1ccon1 tgt="soluble guanylate cyclase (sGC) (Homo sapiens (Human), UniProt Q02108+Q02153)" parameter_measured=Emax result="20 to 40%"
compound=Fc1ccccc1Cn1nc(-c2ccccn2)cc1-c1ncon1 tgt="soluble guanylate cyclase (sGC) (Homo sapiens (Human), UniProt Q02108+Q02153)" parameter_measured=Emax result="40 to 60%"
compound=C/C=C(\C)C(=O)Nc1cnc(-c2cc(-c3ccon3)n(Cc3ccccc3F)n2)nc1N tgt="soluble guanylate cyclase (sGC) (Homo sapiens (Human), UniProt Q02108+Q02153)" parameter_measured=Emax result="60 to 80%"
compound=Nc1nc(-c2cc(-c3ccon3)n(Cc3ccccc3F)n2)ncc1NC(=O)c1ccc(F)cc1 tgt="soluble guanylate cyclase (sGC) (Homo sapiens (Human), UniProt Q02108+Q02153)" parameter_measured=Emax result="100 to 120%"

Task item: What Emax appears in the records for this compound with soluble guanylate cyclase (sGC) (Homo sapiens (Human), UniProt Q02108+Q02153)? `Nc1nc(-c2cc(-c3ccon3)n(Cc3ccccc3F)n2)ncc1NC(=O)C1CC1`
Reply: 60 to 80%

Task item: Entry to check: `CC(=O)Nc1c(N)nc(-c2cc(-c3ccon3)n(Cc3ccccc3F)n2)nc1N`
Reply: 0 to 10%

Task item: Entry to check: CC1(C(=O)Nc2cnc(-c3cc(-c4ccon4)n(Cc4ccccc4F)n3)nc2N)CC1(Cl)Cl (centres unmarked)
Reply: 80 to 100%

Task item: Entry to check: `Fc1ccccc1Cn1nc(-c2ccccn2)cc1-c1cccc(Br)n1`
Reply: 0 to 10%

Task item: Entry to check: `COc1cnc(-c2cc(-c3ccon3)n(Cc3ccccc3F)n2)nc1N`
Reply: 10 to 20%

Task item: Entry to check: `CC(C)C(=O)Nc1cnc(-c2cc(-c3ccon3)n(Cc3ccccc3F)n2)nc1N`
Reply: 100 to 120%

Task item: Entry to check: `CCOc1cnc(-c2cc(-c3ncccn3)nn2Cc2ccccc2F)o1`
Reply: 0 to 10%

Origin of the recorded values: patent US10189809B2
